Data provenance: patent US20240417458A1

Target Of Assay: T1, soluble human RGMc (human, UniProt Q6ZVN8 36-400)
T1 construct: also called huRGMc; soluble hRGMc
T1 sequence: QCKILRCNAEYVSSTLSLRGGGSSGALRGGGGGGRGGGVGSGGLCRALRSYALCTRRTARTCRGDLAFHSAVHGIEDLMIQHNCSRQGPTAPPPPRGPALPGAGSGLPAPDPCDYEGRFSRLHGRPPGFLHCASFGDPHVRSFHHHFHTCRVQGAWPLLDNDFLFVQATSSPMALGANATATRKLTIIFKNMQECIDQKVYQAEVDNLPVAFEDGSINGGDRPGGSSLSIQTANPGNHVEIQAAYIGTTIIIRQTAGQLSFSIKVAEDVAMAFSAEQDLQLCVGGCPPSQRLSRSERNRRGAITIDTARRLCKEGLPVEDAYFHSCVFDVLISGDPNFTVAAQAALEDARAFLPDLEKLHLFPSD
Assay Explanation: SPR (BIAcore);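 also: Anti-HJV antibodies, binding affinity to soluble human RGMc measured by BIAcore surface plasmon resonance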
Mark fulfilled only for Kd values smaller than 0.3 nM; exact matches and larger values are not fulfilled.

>  <Binder>
hHA-001 (antibody, human IgG1, kappa, L234A L235A, V domains shown, hIgG1 constant region with L234A, L235A, kappa) VH: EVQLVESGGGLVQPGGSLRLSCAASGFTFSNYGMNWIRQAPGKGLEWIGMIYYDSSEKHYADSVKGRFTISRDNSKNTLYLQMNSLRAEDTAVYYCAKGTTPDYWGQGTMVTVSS VL: DVVLTQSPLSLPVTLGQPASISCRSSQSLETSDGDTFLEWFQQRPGQSPRLLIYEVSTRFSGVPDRFSGSGSGTDFTLKISRVEAEDVGVYYCFQVTHDPMTFGQGTKLEIKR

>  <Discrete Label>
fulfilled

$$$$
>  <Binder>
hHA-006 (antibody, human IgG1, kappa, L234A L235A, V domains shown, hIgG1 L234A, L235A, kappa) VH: EVQLVESGGGLVQPGGSLRLSCAASGFTFSYYGMNWIRQAPGKGLEWIGMIYYDSSEKHYADSVKGRFTISRDNSKNTLYLQMNSLRAEDTAVYYCAKGTTPDYWGQGTMVTVSS VL: DVVLTQSPLSLPVTLGQPASISCRSSQSLEDSDGGTFLEWFQQRPGQSPRLLIYDVSSRFSGVPDRFSGSGSGTDFTLKISRVEAEDVGVYYCFQATHDPLTFGQGTKLEIKR

>  <Discrete Label>
not fulfilled

$$$$
>  <Binder>
hHA-010 (antibody, human IgG1, kappa, L234A L235A, V domains shown, hIgG1 L234A, L235A, kappa) VH: EVQLVESGGGLVQPGGSLRLSCAASGFTFSNYGMNWVRQAPGKGLEWIGMIYYDSSEKHYADSVKGRFTISRDNSKNTLYLQMNSLRAEDTAVYYCAKGTTPDKWGQGTMVTVSS VL: DVVLTQSPLSLPVTLGQPASISCRSSQSLEESDGYTFLEWFQQRPGQSPRLLIYEVSHRFSGVPDRFSGSGSGTDFTLKISRVEAEDVGVYYCFQATHDPLTFGQGTKLEIKR

>  <Discrete Label>
not fulfilled

$$$$
>  <Binder>
hHA-011 (antibody, human IgG1, kappa, L234A L235A, V domains shown, hIgG1 L234A, L235A, kappa) VH: EVQLVESGGGLVQPGGSLRLSCAASGFTFSNYGMNWVRQAPGKGLEWIGMIYYDSSEKHYADSVKGRFTISRDNSKNTLYLQMNSLRAEDTAVYYCAKGSTPDYWGQGTMVTVSS VL: DVVLTQSPLSLPVTLGQPASISCRSSQSLEDSDGGTFLEWFQQRPGQSPRLLIYDVSSRFSGVPDRFSGSGSGTDFTLKISRVEAEDVGVYYCFQATHDPLSFGQGTKLEIKR

>  <Discrete Label>
fulfilled

$$$$
>  <Binder>
hHA-004 (antibody, human IgG1, kappa, L234A L235A, V domains shown, hIgG1 L234A, L235A, kappa) VH: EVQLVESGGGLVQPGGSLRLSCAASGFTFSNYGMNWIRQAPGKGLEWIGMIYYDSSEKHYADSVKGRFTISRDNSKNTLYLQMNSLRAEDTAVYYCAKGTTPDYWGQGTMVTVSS VL: DVVLTQSPLSLPVTLGQPASISCRSSQSLESSDGDTFLEWFQQRPGQSPRLLIYDVSTRFSGVPDRFSGSGSGTDFTLKISRVEAEDVGVYYCFQVTHDPVTFGQGTKLEIKR

>  <Discrete Label>
fulfilled

$$$$

Answer whether the binder hHA-007 (antibody, human IgG1, kappa, L234A L235A, V domains shown, hIgG1 L234A, L235A, kappa) VH: EVQLVESGGGLVQPGGSLRLSCAASGFTFSNYGMNWIRQAPGKGLEWIGMIYYDSSDKHYADSVKGRFTISRDNSKNTLYLQMNSLRAEDTAVYYCAKGTTPDVWGQGTMVTVSS VL: DVVLTQSPLSLPVTLGQPASISCRSSQSLEESDGYTFLHWFQQRPGQSPRLLIYEVSNRFSGVPDRFSGSGSGTDFTLKISRVEAEDVGVYYCFQATHDPVTFGQGTKLEIKR has Kd strictly less than 0.3 nM
not fulfilled

Threshold test, Kd < 0.3 nM: hHA-002 (antibody, human IgG1, kappa, L234A L235A, V domains shown, hIgG1 L234A, L235A, kappa) VH: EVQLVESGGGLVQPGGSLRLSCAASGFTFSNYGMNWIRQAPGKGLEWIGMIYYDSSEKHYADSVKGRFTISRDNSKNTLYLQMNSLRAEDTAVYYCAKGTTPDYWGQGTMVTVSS VL: DVVLTQSPLSLPVTLGQPASISCRSSQSLETSDGDTFLEWFQQRPGQSPRLLIYEVSSRFSGVPDRFSGSGSGTDFTLKISRVEAEDVGVYYCMQVTHDPLTFGQGTKLEIKR
fulfilled

Bench note: check whether hHA-005 (antibody, human IgG1, kappa, L234A L235A, V domains shown, hIgG1 L234A, L235A, kappa) VH: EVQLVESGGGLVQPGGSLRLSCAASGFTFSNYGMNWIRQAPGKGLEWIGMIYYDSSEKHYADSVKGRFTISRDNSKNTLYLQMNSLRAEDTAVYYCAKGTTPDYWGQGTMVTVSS VL: DVVLTQSPLSLPVTLGQPASISCRSSQSLEESDGYTFLEWFQQRPGQSPRLLIYDVSERFSGVPDRFSGSGSGTDFTLKISRVEAEDVGVYYCFQATYDPLTFGQGTKLEIKR shows Kd below 0.3 nM
not fulfilled

Hi there! Is Kd for hHA-009 (antibody, human IgG1, kappa, L234A L235A, V domains shown, hIgG1 L234A, L235A, kappa) VH: EVQLVESGGGLVQPGGSLRLSCAASGFTFSNYGMNWVRQAPGKGLEWIGMIYYDSSEKHYADSVKGRFTISRDNSKNTLYLQMNSLRAEDTAVYYCAKGTTPDYWGQGTMVTVSS VL: DVVLTQSPLSLPVTLGQPASISCRSSQSLADSDGDTFLHWFQQRPGQSPRLLIYAVSHRFSGVPDRFSGSGSGTDFTLKISRVEAEDVGVYYCFQATHDPVTFGQGTKLEIKR below 0.3 nM, do you know?
not fulfilled
